TESTED TARGET: BCL2 G101V (Homo sapiens, UniProt P10415, G101V)
ASSAY PROCEDURE: TR-FRET competitive binding assay, BCL2 G101V
ASSAY SETUP: BCL2 G101V; Ki determined from IC50; read-out: TR_FRET EKI_Bcl2 G101V
EXPERIMENTAL READOUT: Ki (nM)

>>> recorded_measurement("Cc1c(N(C(=O)c2cc(-c3cc4c(cc3C(=O)N3Cc5ccccc5C[C@H]3C)CN(C(=O)Cc3ccc(OCCN5CCOCC5)cc3)CC4)n(C)c2C)c2ccc(O)cc2)cnn1C1CCOCC1 [Example 142]")
1.3
>>> recorded_measurement("Cc1c(N(C(=O)c2cc(-c3cc4c(cc3C(=O)N3Cc5ccccc5C[C@H]3CN(C)C(C)C)CN(C(=O)Cc3ccc(OCCN5CCOCC5)cc3F)CC4)n(C)c2C)c2ccc(O)cc2)cc(C#N)n1C [Example 91]")
0.3
>>> recorded_measurement("Cc1c(N(C(=O)c2cc(-c3cc4c(cc3C(=O)N3Cc5ccccc5C[C@H]3C)CN(C(=O)C(F)(F)c3ccc(N5CCN(C)CC5)cc3)CC4)n(C)c2C)c2ccc(O)cc2)cc(C#N)n1C [Example 26]")
5.3

----------
Measured Ki (BCLXL WT (Homo sapiens (Human), UniProt Q07817))
EXPERIMENTAL READOUT: Ki (nM)

>>> recorded_measurement("Cc1c(N(C(=O)c2cc(-c3cc4c(cc3C(=O)N3Cc5ccccc5C[C@H]3CN3CCC(F)CC3)CN(C(=O)Cc3ccc(OCCN5CCOCC5)cc3F)CC4)n(C)c2C)c2ccc(O)cc2)cc(C#N)n1C")
1.6
>>> recorded_measurement("Cc1c(N(C(=O)c2cc(-c3cc4c(cc3C(=O)N3Cc5ccccc5C[C@H]3C)CN(C(=O)c3ccccc3)CC4)n(C)c2C)c2ccc(O)cc2)cc(C#N)n1C")
3.2
>>> recorded_measurement("Cc1c(N(C(=O)c2cc(-c3cc4c(cc3C(=O)N3Cc5ccccc5C[C@H]3CN3CCC[C@H](C)C3)CN(C(=O)Cc3ccc(OCCN(C)C5CC5)cc3)CC4)n(C)c2C)c2ccc(O)cc2)cc(C#N)n1C")
5.7
>>> recorded_measurement("Cc1c(N(C(=O)c2cc(-c3cc4c(cc3C(=O)N3Cc5ccccc5C[C@H]3CN3CCCCC3)CN(C(=O)Cc3ccc(OCCN5CCO[C@H](C)C5)cc3)CC4)n(C)c2C)c2ccc(O)cc2)cc(C#N)n1C")
2.7
>>> recorded_measurement("Cc1c(N(C(=O)c2cc(-c3cc4c(cc3C(=O)N3Cc5ccccc5C[C@H]3C)CN(C(=O)c3cnc(-c5ccccc5)s3)CC4)n(C)c2C)c2ccc(O)cc2)cc(C#N)n1C")
9.6

----------
TESTED TARGET: BCL2 WT (Homo sapiens (Human))
ASSAY PROCEDURE: TR-FRET competitive binding assay, BCL2 WT
ASSAY SETUP: Ki determined from IC50, read-out: TR_FRET EKI_Bcl2 WT
EXPERIMENTAL READOUT: Ki (nM)

>>> recorded_measurement("Cc1c(N(C(=O)c2cc(-c3cc4c(cc3C(=O)N3Cc5ccccc5C[C@H]3C)CN(C(=O)Cc3ccc(Cl)cc3F)CC4)n(C)c2C)c2ccc(O)cc2)cc(C#N)n1C")
0.4
>>> recorded_measurement("Cc1c(N(C(=O)c2cc(-c3cc4c(cc3C(=O)N3Cc5ccccc5C[C@H]3CN3CCCC3)CN(C(=O)Cc3ccc(OCCN5CCN(CC(F)F)CC5)cc3)CC4)n(C)c2C)c2ccc(O)cc2)cc(C#N)n1C")
0.04
>>> recorded_measurement("Cc1c(N(C(=O)c2cc(-c3cc4c(cc3C(=O)N3Cc5ccccc5C[C@H]3CN3CCCCC3)CN(C(=O)Cc3ccc(OCCN5CCN(CC(F)F)CC5)cc3)CC4)n(C)c2C)c2ccc(O)cc2)cc(C#N)n1C")
0.05
>>> recorded_measurement("COc1ncc(N(C(=O)c2cc(-c3cc4c(cc3C(=O)N3Cc5ccccc5C[C@H]3CN3CCCCC3)CN(C(=O)Cc3ccc(OCCN5CCOCC5)cc3F)CC4)n(C)c2C)c2ccc(O)cc2)cc1F")
0.08
>>> recorded_measurement("Cc1c(C(=O)N(c2ccccc2)c2cnn(C)c2)cc(-c2cc3c(cc2C(=O)N2Cc4ccccc4C[C@H]2C)CN(C(=O)Cc2ccc(OCCN(C)C)cc2)CC3)n1C")
0.04

----------
TESTED TARGET: BCL2 G101V (Homo sapiens, UniProt P10415, G101V)
ASSAY PROCEDURE: TR-FRET competitive binding assay, BCL2 G101V
ASSAY SETUP: BCL2 G101V; Ki determined from IC50; read-out: TR_FRET EKI_Bcl2 G101V
pKi: −log10 of the molar value.
Attribute: pKi
EXPERIMENTAL READOUT: pKi

>>> recorded_measurement("Cc1c(N(C(=O)c2cc(-c3cc4c(cc3C(=O)N3Cc5ccccc5C[C@H]3CN3CCCCC3)CN(C(=O)Cc3ccc(OCCN5CCN(CCF)CC5)cc3)CC4)n(C)c2C)c2ccc(O)cc2)cc(C#N)n1C [Example 122]")
9.52
>>> recorded_measurement("Cc1c(C(=O)N(c2ccccc2)c2cnn(C)c2)cc(-c2cc3c(cc2C(=O)N2Cc4ccccc4C[C@H]2CN2CCCCC2)CN(C(=O)Cc2ccc(OCCC4CCOCC4)cc2)CC3)n1C [Example 240]")
8.17
>>> recorded_measurement("Cc1cccc(CC(=O)N2CCc3cc(-c4cc(C(=O)N(c5ccc(O)cc5)c5cc(C#N)n(C)c5C)c(C)n4C)c(C(=O)N4Cc5ccccc5C[C@H]4C)cc3C2)c1 [Example 1]")
8.66

----------
TESTED TARGET: BCL2 F104I (Homo sapiens, UniProt P10415, F104I)
ASSAY PROCEDURE: TR-FRET competitive binding assay, BCL2 F104I
ASSAY SETUP: Ki determined from IC50, read-out: TR_FRET EKI_Bcl2 F104I
Procedure: The relative binding potency of each compound was determined in a competitive binding assay using time resolved-fluorescence resonance energy transfer (TR-FRET). […] The degree of binding or corresponding compound inhibition can be quantified by the TR-FRET signal between the terbium donor and fluorescein acceptor. […] TR-FRET measurements were performed on a Biotek Synergy Neo plate reader. […] The TR-FRET signal was calculated as the emission-ratio at 520 nm over 495 nm. […]
EXPERIMENTAL READOUT: Ki (nM)

>>> recorded_measurement("Cc1c(N(C(=O)c2cc(-c3cc4c(cc3C(=O)N3Cc5ccccc5C[C@H]3CN3CC5(CC5)C3)CN(C(=O)Cc3ccc(OCCN5CCOCC5)cc3F)CC4)n(C)c2C)c2ccc(O)cc2)cc(C#N)n1C")
0.14
>>> recorded_measurement("Cc1c(N(C(=O)c2cc(-c3cc4c(cc3C(=O)N3Cc5ccccc5C[C@H]3C)CN(C(=O)Cc3ccc(OCCN5CCC(F)CC5)cc3)CC4)n(C)c2C)c2ccc(O)cc2)cc(C#N)n1C")
0.35
>>> recorded_measurement("Cc1c(C(=O)N(c2ccc(O)cc2)c2cc(C#N)n(C(F)F)c2C)cc(-c2cc3c(cc2C(=O)N2Cc4ccccc4C[C@H]2CN2CCCC2)CN(C(=O)Cc2ccc(OCCN4CCOCC4)cc2F)CC3)n1C")
0.15
>>> recorded_measurement("Cc1c(C(=O)N(c2ccc(O)cc2)c2cc(C#N)n(C(F)F)c2C)cc(-c2cc3c(cc2C(=O)N2Cc4ccccc4C[C@H]2CN2CCCCC2)CN(C(=O)Cc2ccc(OCCN4CCOCC4)cc2)CC3)n1C")
0.47
>>> recorded_measurement("Cc1c(C(=O)N(c2ccc(O)cc2)c2cnc3c(cnn3C)c2)cc(-c2cc3c(cc2C(=O)N2Cc4ccccc4C[C@H]2C)CN(C(=O)Cc2ccc(OCCN4CCOCC4)cc2)CC3)n1C")
0.38

----------
TESTED TARGET: BCL2 WT (Homo sapiens (Human))
ASSAY PROCEDURE: TR-FRET competitive binding assay, BCL2 WT
ASSAY SETUP: Ki determined from IC50, read-out: TR_FRET EKI_Bcl2 WT
pKi: −log10 of the molar value.
Mark Met for reported pKi of 10 or greater; mark Not met for anything smaller.

>>> cat("Cc1c(C(=O)N(c2ccccc2)c2cnc3c(cnn3C)c2)cc(-c2cc3c(cc2C(=O)N2Cc4ccccc4C[C@H]2C)CN(C(=O)Cc2ccc(OCCN4CCOCC4)cc2F)CC3)n1C [Example 194]")
"Met"
>>> cat("Cc1nn(C)cc1N(C(=O)c1cc(-c2cc3c(cc2C(=O)N2Cc4ccccc4C[C@H]2C)CN(C(=O)Cc2ccc(OCCN(C)C)cc2)CC3)n(C)c1C)c1ccccc1 [Example 221]")
"Not met"
>>> cat("Cc1c(C(=O)N(c2ccc(O)cc2)c2cc(C#N)n(CCN(C)C3CC3)c2C)cc(-c2cc3c(cc2C(=O)N2Cc4ccccc4C[C@H]2C)CN(C(=O)Cc2ccccc2)CC3)n1C [Example 22]")
"Not met"
>>> cat("Cc1c(N(C(=O)c2cc(-c3cc4c(cc3C(=O)N3Cc5ccccc5C[C@H]3C)CN(C(=O)Cc3cccc(N5CCN(C)CC5)c3)CC4)n(C)c2C)c2ccccc2)cc(C#N)n1C [Example 3]")
"Met"
>>> cat("Cc1c(N(C(=O)c2cc(-c3cc4c(cc3C(=O)N3Cc5ccccc5C[C@H]3CN3CCCCC3)CN(C(=O)Cc3ccc(OCCN5CCOCC5)cc3)CC4)n(C)c2C)c2ccc(O)cc2)cc(C#N)n1C [Example 67]")
"Met"
>>> cat("Cc1c(C(=O)N(c2ccccc2)c2cnn(C(F)F)c2)cc(-c2cc3c(cc2C(=O)N2Cc4ccccc4C[C@H]2C)CN(C(=O)Cc2ccc(C#CCN4CCOCC4)cc2)CC3)n1C [Example 212]")
"Met"
>>> cat("Cc1c(N(C(=O)c2cc(-c3cc4c(cc3C(=O)N3Cc5ccccc5C[C@H]3C)CN(C(=O)Cc3ccc(OCCN5C[C@@H](C)O[C@@H](C)C5)cc3)CC4)n(C)c2C)c2ccc(O)cc2)cc(C#N)n1C [Example 39]")
"Not met"
>>> cat("Cc1c(N(C(=O)c2cc(-c3cc4c(cc3C(=O)N3Cc5ccccc5C[C@H]3C)CN(C(=O)c3n[nH]c5ccccc35)CC4)n(C)c2C)c2ccc(O)cc2)cc(C#N)n1C [Example 15]")
"Not met"
